Parameter: normalised response. Scope: all listed entries.
System: BT-474
Experiment: normalised response (% of control), CellTiter-Glo; higher = more viable cells (100 = DMSO, 0 = benzethonium chloride kill control)
Settings: incubation time: 72 h
Give a bare numeral; the unit % is implied.

Worked set:
{"COMPOUND": "C[C@@H]1C[C@H]2[C@@H]3CCC4=CC(=O)C=C[C@]4(C)[C@@]3(F)[C@@H](O)C[C@]2(C)[C@@]1(O)C(=O)CO [Dexamethasone] (1000 nM)", "TARGET_UNDER_TEST": "BT-474", "UNIT": "%", "normalised response": 139}
{"COMPOUND": "CC(C)NC[C@@H](C(=O)N1CCN(c2ncnc3c2[C@H](C)C[C@H]3O)CC1)c1ccc(Cl)cc1 [GDC-0068] (10 nM)", "TARGET_UNDER_TEST": "BT-474", "UNIT": "%", "normalised response": 96.8}
{"COMPOUND": "CCCCCOC(=O)Nc1nc(=O)n([C@@H]2O[C@H](C)[C@@H](O)[C@H]2O)cc1F [Capecitabine] (10 nM)", "TARGET_UNDER_TEST": "BT-474", "UNIT": "%", "normalised response": 99.6}

**Q:** Given the compound O=NN(CCCl)C(=O)NC1CCCCC1 [Lomustine] (1000 nM) , write its reported normalised response.
**A:** 101

----------
Test system: MDA-MB-468
Details: 72 h
// reported EC50, CellTiter-Blue viability for each item listed
Express your answer in µM, writing the number without its unit.

These solved cases illustrate the format of a correct answer.
{"SMILES_STR": "CC[C@@H]1C(=O)N(C)c2cnc(Nc3ccc(C(=O)N[C@H]4CC[C@H](N5CCN(CC6CC6)CC5)CC4)cc3OC)nc2N1C(C)C", "TARGET_UNDER_TEST": "MDA-MB-468", "EC50, CellTiter-Blue viability, µM": 0.0137}
{"SMILES_STR": "CC/C(=C(\\c1ccccc1)c1ccc(OCCN(C)C)cc1)c1ccccc1", "TARGET_UNDER_TEST": "MDA-MB-468", "EC50, CellTiter-Blue viability, µM": 4.42}
{"SMILES_STR": "CO[C@H]1C[C@@H]2CC[C@@H](C)[C@@](O)(O2)C(=O)C(=O)N2CCCC[C@H]2C(=O)O[C@H]([C@H](C)C[C@@H]2CC[C@@H](O)[C@H](OC)C2)CC(=O)[C@H](C)/C=C(\\C)[C@@H](O)[C@@H](OC)C(=O)[C@H](C)C[C@H](C)/C=C/C=C/C=C/1C", "TARGET_UNDER_TEST": "MDA-MB-468", "EC50, CellTiter-Blue viability, µM": 0.00026}

Alright, here's another compound for you.
**Q:** Write down the reported EC50, CellTiter-Blue viability (system: MDA-MB-468) of Nc1nc(Cl)nc2c1ncn2[C@@H]1O[C@H](CO)[C@@H](O)[C@@H]1F
**A:** 0.453

----------
System: Hs578T
Experiment: normalised response (% of control), CellTiter-Glo; higher = more viable cells (100 = DMSO, 0 = benzethonium chloride kill control)
Conditions: incubation time: 72 h
MEASURED_METRIC: normalised response (%)
Write down the numeric answer in % and omit the unit.

{"COMPOUND": "CN1CCN(c2nc(C3=C(c4c[nH]c5ccccc45)C(=O)NC3=O)c3ccccc3n2)CC1 [Sotrastaurin] (10 nM)", "TARGET_UNDER_TEST": "Hs578T", "normalised response, %": 101}
{"COMPOUND": "NC(=O)c1cccc2cn(-c3ccc([C@@H]4CCCNC4)cc3)nc12 [MK-4827] (1 nM)", "TARGET_UNDER_TEST": "Hs578T", "normalised response, %": 103}
{"COMPOUND": "NC(=O)c1cccc2cn(-c3ccc([C@@H]4CCCNC4)cc3)nc12 [MK-4827] (1000 nM)", "TARGET_UNDER_TEST": "Hs578T", "normalised response, %": 102}
{"COMPOUND": "COc1cc2c(Oc3ccc(NC(=O)C4(C(=O)Nc5ccc(F)cc5)CC4)cc3F)ccnc2cc1OCCCN1CCOCC1 [Foretinib] (1 nM)", "TARGET_UNDER_TEST": "Hs578T", "normalised response, %": 97.4}
{"COMPOUND": "Cn1nnc2c(C(N)=O)ncn2c1=O [Temozolomide] (1 nM)", "TARGET_UNDER_TEST": "Hs578T", "normalised response, %": 99.8}
{"COMPOUND": "Nc1nc(Cl)nc2c1ncn2[C@@H]1O[C@H](CO)[C@@H](O)[C@@H]1F [Clofarabine] (10 nM)", "TARGET_UNDER_TEST": "Hs578T", "normalised response, %": 105}
{"COMPOUND": "O=C(c1cc(Cc2n[nH]c(=O)c3ccccc23)ccc1F)N1CCN(C(=O)C2CC2)CC1 [Olaparib] (10 nM)", "TARGET_UNDER_TEST": "Hs578T", "normalised response, %": 98.6}
{"COMPOUND": "N[C@@H](Cc1ccc(N(CCCl)CCCl)cc1)C(=O)O [Melphalan] (1250 nM)", "TARGET_UNDER_TEST": "Hs578T", "normalised response, %": 16.4}

**Q:** Tell me measured normalised response for O=NN(CCCl)C(=O)NC1CCCCC1 [Lomustine] (1 nM) please.
**A:** 106

**Q:** Find the measured normalised response of CCCc1cc(C)[nH]c(=O)c1CNC(=O)c1cc(-c2ccnc(N3CCN(C)CC3)c2)cc2c1cnn2C(C)C [GSK343] (10 nM) and report it.
**A:** 101

**Q:** Report normalised response, nothing else, for this compound: CN1CCc2c(c3ccccc3n2Cc2ccc(C(=O)NO)cc2)C1 [Tubastatin A] (1 nM)
**A:** 97.6

**Q:** For the compound CC[C@H](CC#N)OC(=O)N[C@@H](C)c1cccc(NC(=O)Nc2ccc(-c3cnco3)c(OC)c2)c1 [AVN944] (1 nM) , report normalised response.
**A:** 97.8

**Q:** # return recorded normalised response for entry Cc1c(N)nc([C@H](CC(N)=O)NC[C@H](N)C(N)=O)nc1C(=O)N[C@H](C(=O)N[C@H](C)[C@@H](O)[C@H](C)C(=O)N[C@H](C(=O)NCCc1nc(-c2nc(C(=O)NCCC[S+](C)C)cs2)cs1)[C@@H](C)O)[C@@H](OC1OC(CO)C(O)C(O)C1OC1OC(CO)C(O)C(OC(N)=O)C1O)c1cnc[nH]1 (stereo not given in full) [Bleomycin] (1000 nM)
**A:** 86.5

**Q:** Hello, please tell me recorded normalised response for this one: Cc1c(C(=O)Nc2ccc(N3C[C@@H](C)O[C@@H](C)C3)nc2)cccc1-c1ccc(OC(F)(F)F)cc1 [Erismodegib] (10 nM)
**A:** 101

**Q:** Let me know recorded normalised response for CC/C(=C(\c1ccccc1)c1ccc(OCCN(C)C)cc1)c1ccccc1 [Tamoxifen] (1 nM) , thanks.
**A:** 102
